Task for the reader: assign each of the following compounds its reported Accumulative excretion percentage.
measurement notes: Fecal excretion study in rats after oral NS, SF or CNS (LC–MS/MS)
Type: in vivo
measurement conditions: rat feces, oral NS 60 mg/kg, 72 h
Protocol: The animal room was set at constant temperature of 20 ± 2 °C with humidity of 50 ± 20% and 12/12 h light/dark cycle. Eighteen male rats were fasted for 12 h before starting the experiment. […] The urine volume was recorded and the dry feces were measured for each collection period. […] The accumulative excretion percentage was calculated for each analyte as follows. […]
One number for each entry, in %.

>  <compound>
CC(C)=CCC[C@](C)(O[C@@H]1O[C@H](CO)[C@@H](O)[C@H](O)[C@H]1O)[C@H]1CC[C@]2(C)[C@@H]1[C@H](O)C[C@@H]1[C@@]3(C)CC[C@H](O)C(C)(C)[C@@H]3[C@@H](O[C@@H]3O[C@H](CO)[C@@H](O)[C@H](O)[C@H]3O)C[C@]12C [ginsenoside Rg1]

>  <Accumulative excretion percentage [%]>
3.801

$$$$
>  <compound>
CC(C)=CCC[C@](C)(O[C@@H]1O[C@H](CO)[C@@H](O)[C@H](O)[C@H]1O)[C@H]1CC[C@]2(C)[C@@H]1[C@H](O)C[C@@H]1[C@@]3(C)CC[C@H](O[C@@H]4O[C@H](CO)[C@@H](O)[C@H](O)[C@H]4O[C@@H]4O[C@H](CO)[C@@H](O)[C@H](O)[C@H]4O)C(C)(C)[C@@H]3CC[C@]12C [ginsenoside Rd]

>  <Accumulative excretion percentage [%]>
6.534

$$$$
>  <compound>
CC(C)=CCC[C@](C)(O[C@@H]1O[C@H](CO[C@@H]2O[C@H](CO)[C@@H](O)[C@H](O)[C@H]2O)[C@@H](O)[C@H](O)[C@H]1O)[C@H]1CC[C@]2(C)[C@@H]1[C@H](O)C[C@@H]1[C@@]3(C)CC[C@H](O[C@@H]4O[C@H](CO)[C@@H](O)[C@H](O)[C@H]4O[C@@H]4O[C@H](CO)[C@@H](O)[C@H](O)[C@H]4O)C(C)(C)[C@@H]3CC[C@]12C [ginsenoside Rb1]

>  <Accumulative excretion percentage [%]>
2.731

$$$$

Next item in the queue.
Prompt: Consider the compound shown here: CC(C)=CCC[C@](C)(O[C@@H]1O[C@H](CO)[C@@H](O)[C@H](O)[C@H]1O)[C@H]1CC[C@]2(C)[C@@H]1[C@H](O)C[C@@H]1[C@@]3(C)CC[C@H](O)C(C)(C)[C@@H]3[C@@H](O[C@@H]3O[C@H](CO)[C@@H](O)[C@H](O)[C@H]3O[C@@H]3O[C@@H](C)[C@H](O)[C@@H](O)[C@H]3O)C[C@]12C [ginsenoside Re] What is its recorded Accumulative excretion percentage?
Completion: 7.103

* * *

Task for the reader: assign each of the following compounds its reported Excretion amount.
measurement notes: Fecal excretion study in rats after oral NS, SF or CNS (LC–MS/MS)
Assay type: in vivo
measurement conditions: rat feces, oral NS 60 mg/kg, 48 h
One number for each entry, in µg.

>  <compound>
CC(C)=CCC[C@](C)(O[C@@H]1O[C@H](CO)[C@@H](O)[C@H](O)[C@H]1O)[C@H]1CC[C@]2(C)[C@@H]1[C@H](O)C[C@@H]1[C@@]3(C)CC[C@H](O[C@@H]4O[C@H](CO)[C@@H](O)[C@H](O)[C@H]4O[C@@H]4O[C@H](CO)[C@@H](O)[C@H](O)[C@H]4O)C(C)(C)[C@@H]3CC[C@]12C [ginsenoside Rd]

>  <reading unit>
µg

>  <Excretion amount>
10.151

$$$$
>  <compound>
CC(C)=CCC[C@](C)(O[C@@H]1O[C@H](CO)[C@@H](O)[C@H](O)[C@H]1O)[C@H]1CC[C@]2(C)[C@@H]1[C@H](O)C[C@@H]1[C@@]3(C)CC[C@H](O)C(C)(C)[C@@H]3[C@@H](O[C@@H]3O[C@H](CO)[C@@H](O)[C@H](O)[C@H]3O)C[C@]12C [ginsenoside Rg1]

>  <reading unit>
µg

>  <Excretion amount>
30.041

$$$$
>  <compound>
CC(C)=CCC[C@](C)(O[C@@H]1O[C@H](CO[C@@H]2O[C@H](CO)[C@@H](O)[C@H](O)[C@H]2O)[C@@H](O)[C@H](O)[C@H]1O)[C@H]1CC[C@]2(C)[C@@H]1[C@H](O)C[C@@H]1[C@@]3(C)CC[C@H](O[C@@H]4O[C@H](CO)[C@@H](O)[C@H](O)[C@H]4O[C@@H]4O[C@H](CO)[C@@H](O)[C@H](O)[C@H]4O)C(C)(C)[C@@H]3CC[C@]12C [ginsenoside Rb1]

>  <reading unit>
µg

>  <Excretion amount>
14.806

$$$$

Next item in the queue.
Prompt: Consider the compound shown here: CC(C)=CCC[C@](C)(O[C@@H]1O[C@H](CO)[C@@H](O)[C@H](O)[C@H]1O)[C@H]1CC[C@]2(C)[C@@H]1[C@H](O)C[C@@H]1[C@@]3(C)CC[C@H](O)C(C)(C)[C@@H]3[C@@H](O[C@@H]3O[C@H](CO)[C@@H](O)[C@H](O)[C@H]3O[C@@H]3O[C@@H](C)[C@H](O)[C@@H](O)[C@H]3O)C[C@]12C [ginsenoside Re] What is its recorded Excretion amount?
Completion: 8.106

* * *

measurement notes: Fecal excretion study in rats after oral NS, SF or CNS (LC–MS/MS)
Format: in vivo
measurement conditions: male, Sprague Dawley; rat feces, oral CNS 110 mg/kg, 12 h
experimental readout: concentration at 12 h (ng/mL)
Answers are plain numbers, in ng/mL.

Below are worked cases with known answers.
>  <molecule>
CC(C)=CCC[C@](C)(O[C@@H]1O[C@H](CO)[C@@H](O)[C@H](O)[C@H]1O)[C@H]1CC[C@]2(C)[C@@H]1[C@H](O)C[C@@H]1[C@@]3(C)CC[C@H](O)C(C)(C)[C@@H]3[C@@H](O[C@@H]3O[C@H](CO)[C@@H](O)[C@H](O)[C@H]3O[C@@H]3O[C@@H](C)[C@H](O)[C@@H](O)[C@H]3O)C[C@]12C [ginsenoside Re]

>  <experimental readout>
concentration at 12 h

>  <experimental result>
330

$$$$
>  <molecule>
CC(C)=CCC[C@](C)(O[C@@H]1O[C@H](CO)[C@@H](O)[C@H](O)[C@H]1O)[C@H]1CC[C@]2(C)[C@@H]1[C@H](O)C[C@@H]1[C@@]3(C)CC[C@H](O)C(C)(C)[C@@H]3[C@@H](O[C@@H]3O[C@H](CO)[C@@H](O)[C@H](O)[C@H]3O)C[C@]12C [ginsenoside Rg1]

>  <experimental readout>
concentration at 12 h

>  <experimental result>
1110

$$$$

Below are 2 molecules. Give each one its concentration at 12 h.
1. CC(C)=CCC[C@](C)(O[C@@H]1O[C@H](CO[C@@H]2O[C@H](CO)[C@@H](O)[C@H](O)[C@H]2O)[C@@H](O)[C@H](O)[C@H]1O)[C@H]1CC[C@]2(C)[C@@H]1[C@H](O)C[C@@H]1[C@@]3(C)CC[C@H](O[C@@H]4O[C@H](CO)[C@@H](O)[C@H](O)[C@H]4O[C@@H]4O[C@H](CO)[C@@H](O)[C@H](O)[C@H]4O)C(C)(C)[C@@H]3CC[C@]12C [ginsenoside Rb1]
2. CC(C)=CCC[C@](C)(O[C@@H]1O[C@H](CO)[C@@H](O)[C@H](O)[C@H]1O)[C@H]1CC[C@]2(C)[C@@H]1[C@H](O)C[C@@H]1[C@@]3(C)CC[C@H](O[C@@H]4O[C@H](CO)[C@@H](O)[C@H](O)[C@H]4O[C@@H]4O[C@H](CO)[C@@H](O)[C@H](O)[C@H]4O)C(C)(C)[C@@H]3CC[C@]12C [ginsenoside Rd]

Completion:
[899, 164]

* * *

measurement notes: Urinary excretion study in rats after oral NS, SF or CNS (LC–MS/MS)
Format: in vivo
measurement conditions: rat urine, oral NS 60 mg/kg, 72 h
experimental readout: Excretion amount (µg)
Answers are plain numbers, in µg.

Below are worked cases with known answers.
>  <molecule>
CC(C)=CCC[C@](C)(O[C@@H]1O[C@H](CO)[C@@H](O)[C@H](O)[C@H]1O)[C@H]1CC[C@]2(C)[C@@H]1[C@H](O)C[C@@H]1[C@@]3(C)CC[C@H](O)C(C)(C)[C@@H]3[C@@H](O[C@@H]3O[C@H](CO)[C@@H](O)[C@H](O)[C@H]3O[C@@H]3O[C@@H](C)[C@H](O)[C@@H](O)[C@H]3O)C[C@]12C [ginsenoside Re]

>  <experimental result>
0.007

$$$$
>  <molecule>
CC(C)=CCC[C@](C)(O[C@@H]1O[C@H](CO[C@@H]2O[C@H](CO)[C@@H](O)[C@H](O)[C@H]2O)[C@@H](O)[C@H](O)[C@H]1O)[C@H]1CC[C@]2(C)[C@@H]1[C@H](O)C[C@@H]1[C@@]3(C)CC[C@H](O[C@@H]4O[C@H](CO)[C@@H](O)[C@H](O)[C@H]4O[C@@H]4O[C@H](CO)[C@@H](O)[C@H](O)[C@H]4O)C(C)(C)[C@@H]3CC[C@]12C [ginsenoside Rb1]

>  <experimental result>
0.030

$$$$
>  <molecule>
CC(C)=CCC[C@](C)(O[C@@H]1O[C@H](CO)[C@@H](O)[C@H](O)[C@H]1O)[C@H]1CC[C@]2(C)[C@@H]1[C@H](O)C[C@@H]1[C@@]3(C)CC[C@H](O)C(C)(C)[C@@H]3[C@@H](O[C@@H]3O[C@H](CO)[C@@H](O)[C@H](O)[C@H]3O)C[C@]12C [ginsenoside Rg1]

>  <experimental result>
0.091

$$$$

Next item in the queue.
Prompt: Consider the molecule shown here: CC(C)=CCC[C@](C)(O[C@@H]1O[C@H](CO)[C@@H](O)[C@H](O)[C@H]1O)[C@H]1CC[C@]2(C)[C@@H]1[C@H](O)C[C@@H]1[C@@]3(C)CC[C@H](O[C@@H]4O[C@H](CO)[C@@H](O)[C@H](O)[C@H]4O[C@@H]4O[C@H](CO)[C@@H](O)[C@H](O)[C@H]4O)C(C)(C)[C@@H]3CC[C@]12C [ginsenoside Rd] What is its recorded Excretion amount?
Completion: 0.013
